System: Broadleaf weed
Test: Post-emergence herbicidal activity test in a paddy field
Type: in vivo
Design: key: level scale; higher level = more weed left vs blank control
Conditions: 150 g a.i./ha (penoxsulam control 250 g(a.i.)/h), 15 days after treatment
attribute measured: Herbicidal activity 15 days after treatment Broadleaf weed
Give bare numbers.

Example entries and their recorded answers appear below.
compound="COc1ccc(OC)c(C(=O)NCc2cc(Cl)cc(Cl)c2)c1 [Compound A29]" target_or_system="Broadleaf weed" endpoint_value=1
compound="Cc1cccc(C(=O)NCc2cccc(F)c2)c1 [Compound B01]" target_or_system="Broadleaf weed" endpoint_value=1
compound="Cc1ccc(CNC(=O)c2cccc(C)c2)cc1 [Compound B15]" target_or_system="Broadleaf weed" endpoint_value=1
compound="COc1ncccc1C(=O)NCc1ccc(F)cc1 [Compound A94]" target_or_system="Broadleaf weed" endpoint_value=1
compound="COc1ccc(OC)c(C(=O)NCc2cc(F)cc(F)c2)c1 [Compound A24]" target_or_system="Broadleaf weed" endpoint_value=1
compound="Cc1cccc(C(=O)NCc2cccc(F)c2)n1 [Compound B22]" target_or_system="Broadleaf weed" endpoint_value=1
compound="Cc1cccc(CNC(=O)c2cccc(C)c2)c1 [Compound B14, 3-methyl-N-(3-methylbenzyl)benzamide]" target_or_system="Broadleaf weed" endpoint_value=1
compound="COc1ncccc1C(=O)NCc1cc(F)cc(Cl)c1 [Compound A89]" target_or_system="Broadleaf weed" endpoint_value=1

Please look at the items below and tell me Herbicidal activity 15 days after treatment Broadleaf weed for each one, in order.
1. COc1ccccc1C(=O)NCc1cc(F)cc(F)c1 [Compound A03]
2. Cc1cccc(C(=O)NCc2cc(F)cc(Cl)c2)c1 [Compound B07]
3. COc1cccc(CNC(=O)c2cccnc2OC)c1 [Compound A87]
4. COc1ccccc1C(=O)NCc1cccc(C)c1 [Compound A14, 2-methoxy-N-(3-methylbenzyl)benzamide]
5. COc1ncccc1C(=O)NCc1cccc(Cl)c1 [Compound A92]

Ans.
1: 1; 2: 1; 3: 1; 4: 1; 5: 1

Qu. Report Herbicidal activity 15 days after treatment Broadleaf weed for Cc1cccc(C(=O)NCc2ccc(F)c(Cl)c2)n1 [Compound B30] please.
Ans. 1

---

System: Humulus scandens
Assay: Herbicidal activity test for indoor pre-emergence soil treatment
Assay type: in vivo
Settings: 150 g a.i./ha, visual inspection 21 days after treatment
attribute measured: Herbicidal Activity Humulus scandens

Qu. Which measured Herbicidal Activity Humulus scandens value corresponds to CS(=O)(=O)c1cc(C(F)(F)F)ccc1C(=O)c1cnoc1C1CC1 [Isoxaflutole, reference compound] ?
Ans. 1

---

Tested on: Amaranthus retroflexus
Assay: Herbicidal activity test for indoor post-emergence spraying on stems and leaves
Format: in vivo
Parameters: key: grade level by weed remaining vs blank control, e.g. 5 = 10.1-15%
Conditions: 150 g a.i./ha, visual inspection 21 days after treatment
Kindly state Herbicidal Activity Amaranthus retroflexus for each of the entries shown.

Sample answers from the record:
structure=COc1ccc(OC)c(C(=O)NCc2ccc(F)cc2)c1 endpoint_value=1
structure=Cc1cccc(C(=O)NCc2cc(Cl)cc(Cl)c2)c1 endpoint_value=1

Would you kindly look at the next entry?
Qu. Under Amaranthus retroflexus: Herbicidal Activity Amaranthus retroflexus value of Cc1cccc(C(=O)NCc2cc(F)cc(Cl)c2)c1 ?
Ans. 1

---

System: Humulus scandens
Test: Herbicidal activity test for indoor post-emergence spraying on stems and leaves
Format: in vivo
Set-up: key: grade level by weed remaining vs blank control, e.g. 5 = 10.1-15%
Details: 150 g a.i./ha, visual inspection 21 days after treatment
Assign Herbicidal Activity Humulus scandens to each entry below.
Give bare numbers.

compound="COc1ncccc1C(=O)NCc1cccc(Cl)c1 [Compound A92]" endpoint_value=1
compound="Cc1ccc(CNC(=O)c2cccc(C)c2)cc1 [Compound B15]" endpoint_value=1

Now for the compound whose Herbicidal Activity Humulus scandens we want.
Qu. Which Herbicidal Activity Humulus scandens is reported for this compound? Cc1cccc(C(=O)NCc2cc(F)cc(Cl)c2)n1 [Compound B27]
Ans. 1

Source: patent US20220330549A1
